List of log10(IC50) tested on Heat shock protein HSP 90-beta (Homo sapiens, UniProt P08238).
Sequence (P08238 whole entry): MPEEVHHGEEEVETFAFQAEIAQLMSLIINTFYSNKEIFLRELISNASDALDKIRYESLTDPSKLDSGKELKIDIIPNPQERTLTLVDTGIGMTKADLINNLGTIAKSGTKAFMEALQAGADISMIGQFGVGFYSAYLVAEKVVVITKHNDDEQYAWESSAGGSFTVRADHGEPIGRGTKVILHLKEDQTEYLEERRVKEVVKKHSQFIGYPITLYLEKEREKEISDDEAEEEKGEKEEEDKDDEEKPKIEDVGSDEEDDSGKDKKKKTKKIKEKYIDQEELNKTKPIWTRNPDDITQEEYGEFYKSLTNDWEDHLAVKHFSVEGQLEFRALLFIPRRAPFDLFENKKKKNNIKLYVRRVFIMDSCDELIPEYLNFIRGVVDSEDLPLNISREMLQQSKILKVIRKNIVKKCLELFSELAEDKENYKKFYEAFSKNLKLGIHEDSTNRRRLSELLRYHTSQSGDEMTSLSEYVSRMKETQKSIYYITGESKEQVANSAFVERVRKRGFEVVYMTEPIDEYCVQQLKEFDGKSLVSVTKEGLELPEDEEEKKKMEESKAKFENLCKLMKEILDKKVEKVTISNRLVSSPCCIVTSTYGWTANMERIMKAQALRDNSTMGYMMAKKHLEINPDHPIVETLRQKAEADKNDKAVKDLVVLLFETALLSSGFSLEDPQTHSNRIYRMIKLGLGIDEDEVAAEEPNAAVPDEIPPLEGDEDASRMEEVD
READOUT TYPE: log10(IC50) (log10 of the value in nM)

{"MOLECULE": "CCCc1cc2cc(-n3nc(C)c4c3CC(C)(C)CC4=O)cc(N3CCOCC3)c2c(=O)[nH]1", "log10(IC50)": 2.08}
{"MOLECULE": "CCCCc1cc2cc(-n3nc(C)c4c3CC(C)(C)CC4=O)cc(N[C@H]3CC[C@H](O)CC3)c2c(=O)[nH]1", "log10(IC50)": 2.19}
{"MOLECULE": "COCc1cc2cc(-n3nc(C)c4c3CC(C)(C)CC4=O)cc(N[C@H]3CC[C@H](O)CC3)c2c(=O)[nH]1", "log10(IC50)": 2.20}
{"MOLECULE": "CCCc1cc2cc(-n3nc(C)c4c3CC(C)(C)CC4=O)cc(N3CCN(C(=O)OC(C)(C)C)CC3)c2c(=O)[nH]1", "log10(IC50)": 2.67}
{"MOLECULE": "CCCC1Cc2cc(-n3nc(C)c4c3CC(C)(C)CC4=O)cc(N[C@H]3CC[C@H](O)CC3)c2C(=O)N1 (some centres not stated)", "log10(IC50)": 1.52}
{"MOLECULE": "Cc1nn(-c2cc(N[C@H]3CC[C@H](O)CC3)c3c(=O)[nH]c(C(C)C)cc3c2)c2c1C(=O)CC(C)(C)C2", "log10(IC50)": 1.71}
{"MOLECULE": "CCCc1cc2cc(-n3nc(C)c4c3CC(C)(C)CC4=O)cc(N3CCN(C)CC3)c2c(=O)[nH]1", "log10(IC50)": 2.63}
{"MOLECULE": "CCc1cc2cc(-n3nc(C)c4c3CC(C)(C)CC4=O)cc(N[C@H]3CC[C@H](O)CC3)c2c(=O)[nH]1", "log10(IC50)": 1.83}
{"MOLECULE": "Cc1nn(-c2cc(N[C@H]3CC[C@H](O)CC3)c3c(=O)[nH]c(C4CC4)cc3c2)c2c1C(=O)CC(C)(C)C2", "log10(IC50)": 2.98}
{"MOLECULE": "Cc1nn(-c2cc(N[C@H]3CC[C@H](O)CC3)c3c(=O)[nH]c(CO)cc3c2)c2c1C(=O)CC(C)(C)C2", "log10(IC50)": 2.37}
{"MOLECULE": "Cc1nn(-c2cc(N[C@H]3CC[C@H](O)CC3)c3c(=O)[nH]c(CC(C)C)cc3c2)c2c1C(=O)CC(C)(C)C2", "log10(IC50)": 2.42}
{"MOLECULE": "CCCc1cc2cc(-n3nc(C)c4c3CC(C)(C)CC4=O)cc(N(C)CCN(CC)CC)c2c(=O)[nH]1", "log10(IC50)": 3.65}
{"MOLECULE": "CCCc1cc2cc(-n3nc(C)c4c3CC(C)(C)CC4=O)cc(N3CCNCC3)c2c(=O)[nH]1", "log10(IC50)": 3.65}
{"MOLECULE": "CCCc1cc2cc(-n3nc(C)c4c3CC(C)(C)CC4=O)cc(NC3CCN(C)CC3)c2c(=O)[nH]1", "log10(IC50)": 2.71}
{"MOLECULE": "Cc1cc2cc(-n3nc(C)c4c3CC(C)(C)CC4=O)cc(N[C@H]3CC[C@H](O)CC3)c2c(=O)[nH]1", "log10(IC50)": 2.00}
